IC50 values, listed per item
Measured on: Sodium-dependent serotonin transporter (Homo sapiens, UniProt P31645)
Sequence (P31645 whole entry): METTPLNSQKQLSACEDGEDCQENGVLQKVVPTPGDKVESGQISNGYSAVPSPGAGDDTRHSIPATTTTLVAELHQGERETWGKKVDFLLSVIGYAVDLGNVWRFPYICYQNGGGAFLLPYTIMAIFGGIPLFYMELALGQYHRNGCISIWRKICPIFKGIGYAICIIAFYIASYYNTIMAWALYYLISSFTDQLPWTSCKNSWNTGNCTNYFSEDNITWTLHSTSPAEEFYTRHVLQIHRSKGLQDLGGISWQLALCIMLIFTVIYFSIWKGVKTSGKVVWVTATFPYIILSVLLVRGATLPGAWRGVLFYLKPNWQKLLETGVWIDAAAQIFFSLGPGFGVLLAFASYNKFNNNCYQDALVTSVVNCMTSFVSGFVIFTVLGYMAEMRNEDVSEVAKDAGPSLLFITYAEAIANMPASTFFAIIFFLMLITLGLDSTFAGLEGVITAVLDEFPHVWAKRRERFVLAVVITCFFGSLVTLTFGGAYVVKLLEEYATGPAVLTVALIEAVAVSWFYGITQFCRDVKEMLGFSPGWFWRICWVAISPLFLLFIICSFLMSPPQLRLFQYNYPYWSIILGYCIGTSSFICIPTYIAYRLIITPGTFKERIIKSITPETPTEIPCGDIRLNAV
Procedure details: Inhibition of human SERT in HEK cells assessed as [3H]serotonin reuptake
Experimental endpoint: IC50

[[record]]
smiles_representation = "COc1ccc(-c2cnc([C@H]3[C@@H](c4ccc(C)cc4)C[C@@H]4CC[C@H]3N4C)s2)cc1"
endpoint_result = "6.8 µM"

[[record]]
smiles_representation = "Cc1ccc([C@H]2C[C@@H]3CC[C@H]([C@H]2c2ncc(-c4cccc(Br)c4)s2)N3C)cc1"
endpoint_result = "3.86 µM"

[[record]]
smiles_representation = "COc1ccc(-c2cnc([C@H]3[C@@H](c4ccc(Cl)cc4)C[C@@H]4CC[C@H]3N4C)s2)cc1OC"
endpoint_result = "> 6.8 µM"

